# Tested on: HT29 colon
# ASSAY METHOD TEXT: NCI-60 one-dose screen, 48 h
# REPORTED CONDITIONS: 10 µM unless noted
# Experimental: Growth inhibition of the HT29 human tumor cell line is measured as a screen for anti-cancer activity. Cells are grown in 96 well plates and exposed to the test compound for 48 hours. Compounds are tested at a single concentration, which is 10^-5 M for most compounds. The reported endpoint is percent growth (GI% or GIPRCNT), where numbers from 0 - 100% represent growth inhibition, and numbers from -100% - 0 represent cell death. For example, a value of 40 represents 60% growth inhibition. […]
This is part of a sample that, as a whole, favours compounds with a hit. Of some 83,000 tested, about 20% had one in any assay. Active and inactive are the calls of the source. Rule for the calls: active = growth percent below 10; inactive = the rest.
Field 'call' accepts active, inactive

Ask: Please share the test call associated with "COc1cc(CNc2oc(-c3ccccc3)c(-c3ccccc3)c2C#N)cc(CN2CCN(C)CC2)c1O" .
Result: active

Ask: Now try "COc1cc(-c2nc3cc(Cl)c(Cl)cc3[nH]2)ccc1OCC(=O)N=Nc1c(O)[nH]c2ccccc12" .
Result: active

Ask: Now try CN1C(=O)C2(SCC(C(=O)NCc3ccccc3)N2C(=O)C2CCCCC2)c2ccccc21 (stereo not drawn) .
Result: inactive

====

# System: COLO 205 colon
# ASSAY METHOD TEXT: NCI-60 one-dose screen, 48 h
# REPORTED CONDITIONS: 10 µM unless noted
About 83,000 compounds went through this panel and 20% of them were active in at least one assay; those are over-represented in the sample as a whole. Active and inactive are the calls of the source. Rule for the calls: active = growth percent below 10; inactive = the rest.
Field 'call' accepts active, inactive

Some solved entries appear below for comparison.
COMPOUND | LABEL CLASS
Cc1cc(N2CCCC2)nc(NC2CCCC(Nc3ccnc4cc(Cl)ccc34)C2)n1 (centres undefined) | active
COc1cc(-c2nc3ccccc3[nH]2)ccc1OCc1nnc(-c2ccc(CC(C)C)cc2)o1 | inactive
CCOC(=O)c1c(C(=O)OCC)c2cc(-c3ccn4c(C(=O)c5ccccc5)c(C(=O)OCC)c(C(=O)OCC)c4c3)ccn2c1C(=O)c1ccccc1 | inactive

Ask: Please share the test call associated with "COc1cc(-c2nc(C(=O)NCC(=O)NO)nn2-c2ccc(Cl)cc2)cc(OC)c1OC" .
Result: inactive

Ask: Now try "COc1ccc(/C=C/C(=O)c2ccc(O)c(CN3CCN(c4cc5c(cc4F)c(=O)c(C(=O)O)cn5C4CC4)CC3)c2)cc1" .
Result: inactive

Ask: Now try "COc1ccc(CN2c3ccccc3Sc3ccccc32)c(C(F)(F)F)c1" .
Result: active

Ask: Now try "CN(C)S(=O)(=O)c1ccc(S(=O)(=O)Nc2cccc(Cl)c2N2CCCCC2)cc1" .
Result: inactive

Ask: Now try "C#Cc1cccc(NC(=O)c2ccccc2NC(=O)CCl)c1" .
Result: inactive

Ask: Now try "CC(=O)Oc1ccc(Cl)cc1CN(C(C)=O)C1CCCCC1" .
Result: inactive

====

# Tested on: HCT-15 colon
# ASSAY METHOD TEXT: NCI-60 one-dose screen, 48 h
# REPORTED CONDITIONS: 10 µM unless noted
Compounds without any hit were thinned out: in the full panel of roughly 83,000, 20% have a hit. Active and inactive are the calls of the source. Rule for the calls: active = growth percent below 10; inactive = the rest.
Field 'call' accepts t (active), f (inactive)

Some solved entries appear below for comparison.
COMPOUND | LABEL CLASS
Cc1ccc(C2Oc3ccccc3C3CC(c4cccs4)=NN32)cc1 (stereo not given) | f
O=[N+]([O-])c1ccccc1/C=N\NC(=S)N/N=C/c1ccccc1[N+](=O)[O-] | f

Ask: Please share the test call associated with CSc1ccc(SC2c3ccc(C)cc3Oc3nc(N)c(C#N)c(N)c32)cc1 (stereo not given) .
Result: t

Ask: Now try "CCOC(=O)c1c(CN2CCN(C)CC2)nc2ccc(Cl)cc2c1-c1ccccc1" .
Result: f

Ask: Now try "COc1ccc(NC(=O)c2ccc(/C=C/C(=O)c3ncc[nH]3)cc2)cc1" .
Result: f

Ask: Now try "COc1cc(/C=C/c2cc(/C=C/c3ccc(O)c(OC)c3)n(-c3c(C)cccc3C)c(=O)n2)ccc1O" .
Result: t

Ask: Now try Cc1cc(N2CCCCCC2)nc(NC2CCCC(Nc3ccnc4cc(Cl)ccc34)C2)n1 (stereo not given) .
Result: t

Ask: Now try "Cc1cc(Nc2ccc(C)c(Cl)c2)n2nc(C(F)(F)F)nc2n1" .
Result: f

Ask: Now try "COc1ccc2[nH]cc(-c3noc(C(=O)c4cn(C)c5ccc(F)cc45)n3)c2c1" .
Result: f

Ask: Now try "C=C1c2nc3ccccc3n2C=C(c2cccc(Cl)c2)N1Cc1ccc(OC)cc1" .
Result: f
